# Test system: K4 kissing-loop RNA reporter;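 also: bound reporter read as fluorescence of individual clusters on recovered sequencing chips by microscopy, with normalized cluster intensities fitted with a binding model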
# assay-text: apparent KD of K4 kissing-loop reporter; higher = weaker reporter binding
# condition: Eterna round: R107; input ligand: theophylline 20 uM
Given measured apparent KD of K4 kissing-loop reporter, output 1 (yes) if it is greater than or equal to 200 nM and 0 (no) if not.

Answer whether apparent KD of K4 kissing-loop reporter of UGAUUGGCGAAAGUAGUGAUGUUACGAAUAUAGGAUAUUAGAGGAAUAAGAAGGAUAAGGGAGAAAUAGGUAAAUUGUUGGUUGG [whbob_SS_FMNA__2th170] is greater than or equal to 200 nM. 0 (no)

Others:
Can GAUACCACGUUAGAUACCAGCUUCGUUGACUUGGGUAGUAGUCGAACUUCAGUGAUGUUGAGCCCUUGGCAGCUACAGAUGUGCG [theeternabot_exclusion_KL_Theo_B_38] be said to have apparent KD of K4 kissing-loop reporter at or above 200 nM? 1 (yes)

And the next one, AUCGUUGUCUGAGGAUAUCGGUUAUCUGUAGUGAUGUUACAGUAUAUUGAUAUUAAAGAUUCUAUUCGAGAAGGCAGACAACGUA [JR_Nu3_ExcFMNB_Sub023] ? 0 (no)

Here is the next sequence: AGGAGCGUGGGAUGUAAAUCGCACGCUCCUCGAGGACCGGUACGGCCGCCACUCGCUCGCGCCGAGUGAUGUUCGGCCGGCGAAC [#2 Same State - Tryptophan A Attempt #13 (HarryS)] 1 (yes)

And then CCAUCGCUAUUCGAUACCAGCUACUUAGUGAUGUUAAGUUAAAAUCCAUUGUAGAUGGAAAGCCCUUGGCAGCGAAUAGUGAUGG [Theophylline B K4 22] , what is it? 1 (yes)

Now consider UCUGUUGUAUAUGAUACCAGCAGUGAGAGACGAGAAGUAUAGUGAUGUUAUAUGAGAGAAUGCCCUUGGCAGCGUGUGCGUGUGG [SSTheophylB.aB] and answer again. 0 (no)

Same question, CGCCGAAAGGCGAGCGCUCCCACUCCGGAAGGAGCGCCCGAAAGGGCAGGUAGGUCGCCGGAGUGAUGUUCCGGUGGAGGGCUCG [#2 Exclusion - Arginine A Attempt #30 (Inspired by Omei)] this time 1 (yes)

Could you do the same for AAGUGUGUGGCGGCCGCCACUAGUAUCCAGUGAUGUUGGAGAUAUCACGUAAGUGAUAUCCAACAUAGGACCGGGCCAUAUAGAA [Same State - Tryptophan B (Freestyle 17)] , please? 0 (no)

Can you handle CUAGGUAACACAGGAUAUGUCCGAGUGAUGUUCGAGCCUUUCCAUUGACGAAAUUAAUGGUGGGUGACAGAAGGGUGAGUACUGA [Uses] next? 1 (yes)

Next entry: AAAAUAACCCAGUGAUGUUGGUAUCCAGAUACCAGCGACGAAAGUCGCCCUUGGCAGCUGUGGACGUACAAAAUAAGUACGUCCU 1 (yes)

What about UGACUACAAAAGGAAUAAUCCUAGUGAUGUUAGGAUAUGCUGAUAAGCAGAAGGAACUGAGAUCGAAAGAUCUCAAAUGUAGUCU [FmnAX 25 Mat Inspired #SwitchBubble #StaticStem #K4Early] ? 0 (no)
